Each entry below carries its recorded POST Application SETFA herbicidal damage (five point scale).
# System: Setaria faberi (SETFA)
# method_description: Post-emergence herbicidal glasshouse test on Setaria faberi
# Type: in vivo
# conditions_used: post-emergence; 1000 g/h; evaluated after 13 days
# Procedure: Seeds of a variety of test species are sown in standard soil in pots (Alopecurus myosuroides (ALOMY), Setaria faberi (SETFA), Echinochloa crus-galli (ECHCG), Solanum nigrum (SOLNI), Amaranthus retoflexus (AMARE), Ipomoea hederacea (IPOHE)). […] After 13 days for pre and post-emergence, the test is evaluated for the percentage herbicidal damage caused to the plant. […]

In [3]: df
Out[3]:
                            smiles_notation                result
0  Cc1ccc(-c2c(C(F)(F)F)ccn(-c3cnn(C)c(=O)c3O)c2=O)cc1[N+](=O)[O-]  5 (5=80-100% damage)
1  CC(C)n1ncc(-c2ccc(C(F)(F)F)cc2S(C)(=O)=O)c(O)c1=O  5 (5=80-100% damage)
2  Cn1ncc(-c2ccc(C(F)(F)F)cc2[N+](=O)[O-])c(O)c1=O    1 (1=0-19% damage)

Briefly, POST Application SETFA herbicidal damage (five point scale) measured for "COc1ccc(Cn2ncc(-c3ccc(Cl)cc3S(C)(=O)=O)c(O)c2=O)cc1" : 5 (5=80-100% damage)

Item: "CCCCn1cc(C)cc(-c2cnn(C)c(=O)c2O)c1=O" | POST Application SETFA herbicidal damage (five point scale): 2 (2=20-39% damage)

For this compound ( "Cn1ncc(-c2ccc(C(F)(F)F)nc2Cl)c(O)c1=O" ), measured POST Application SETFA herbicidal damage (five point scale) is 2 (2=20-39% damage)

Entry "Cn1ncc(-n2ccc(C(F)(F)F)c(-c3ccc(C#N)cc3)c2=O)c(O)c1=O" — recorded POST Application SETFA herbicidal damage (five point scale) = 5 (5=80-100% damage)

POST Application SETFA herbicidal damage (five point scale) reported for this compound "C#Cn1ncc(-c2ccc(C(F)(F)F)cc2S(C)(=O)=O)c(O)c1=O" : 5 (5=80-100% damage)
